- Test system: MB 5919 (OprD+, efflux+)
- Type: cell-based, Pseudomonas aeruginosa
molecules and their reported MIC
Respond with the bare value in µg/mL.

Known results for molecules:
input_smiles: CC(C)(O/N=C(\C(=O)N[C@@H]1C(=O)N2C(C(=O)[O-])=C(C[n+]3ccccc3)CS[C@H]12)c1csc(N)n1)C(=O)O
unit_annotation: µg/mL
endpoint_result: 1
--
input_smiles: CCN1CCN(C(=O)N[C@@H](C(=O)N[C@@H]2C(=O)N3[C@@H]2SC(C)(C)[C@@H]3C(=O)O)c2ccccc2)C(=O)C1=O
unit_annotation: µg/mL
endpoint_result: 2
--
input_smiles: C[C@@H](O)[C@H]1C(=O)N2C(C(=O)O)=C(SCCN=CN)C[C@H]12
unit_annotation: µg/mL
endpoint_result: 4

Next molecule, please.
(Q) Read off the recorded MIC for C[C@@H](O)[C@H]1C(=O)N2C(C(=O)O)=C(S[C@@H]3CN[C@H](C(=O)N(C)C)C3)[C@H](C)[C@H]12
(A) 2

###

- Test system: P. aeruginosa expressing IMP-1, efflux+ (MB9798)
- Type: cell-based, Pseudomonas aeruginosa
- assay_setup: ratio MITC95 PA_9798/MITC95 PA_9799
compounds and their reported Efflux ratio
Give a plain numeric answer without units written out.

Known results for compounds:
input_smiles: Nc1ccc(-c2ccc(S(=O)(=O)C3CCNCC3)c(S(N)(=O)=O)c2-c2nn[nH]n2)cn1
endpoint_result: 2.00

input_smiles: NS(=O)(=O)c1c(S(=O)(=O)C2CNC2)ccc(-c2cccc3ccnn23)c1-c1nnn[nH]1.O=C(O)C(F)(F)F
endpoint_result: 2.00

input_smiles: NC(=O)c1cn2cccc(-c3ccc(S(=O)(=O)C4CNC4)c(S(N)(=O)=O)c3-c3nnn[nH]3)c2n1
endpoint_result: 2.00

input_smiles: Cc1ccc(-c2ccc(S(=O)(=O)CCN)c(S(N)(=O)=O)c2-c2nn[nH]n2)c2nc(N)sc12
endpoint_result: 1.00

input_smiles: Nc1ccc(-c2ccc(S(=O)(=O)C3CNC3)c(S(N)(=O)=O)c2-c2nn[nH]n2)cn1
endpoint_result: 2.18

input_smiles: NCCNC(=O)c1cccc(-c2ccc(S(=O)(=O)C3CNC3)c(S(N)(=O)=O)c2-c2nn[nH]n2)c1N
endpoint_result: 4.00

input_smiles: NCCS(=O)(=O)c1ccc(-c2ccc3oc(N)nc3c2)c(-c2nn[nH]n2)c1S(N)(=O)=O
endpoint_result: 8.00

input_smiles: Nc1nc2c(-c3ccc(S(=O)(=O)[C@H]4CN[C@H](CO)C4)c(S(N)(=O)=O)c3-c3nn[nH]n3)cccc2s1
endpoint_result: 1.00

(Q) Read off the recorded Efflux ratio for Nc1nc2c(-c3ccc(S(=O)(=O)C[C@H](N)CO)c(S(N)(=O)=O)c3-c3nn[nH]n3)cccc2[nH]1
(A) 1.00

(Q) Read off the recorded Efflux ratio for CS(=O)(=O)c1ccc(-c2cccc3nc(N)[nH]c23)c(-c2nn[nH]n2)c1S(N)(=O)=O
(A) 4.00

(Q) Read off the recorded Efflux ratio for NS(=O)(=O)c1c(S(=O)(=O)C2CNC2)ccc(-c2ccc3cn[nH]c3c2)c1-c1nnn[nH]1.O=C(O)C(F)(F)F
(A) 15.99

(Q) Read off the recorded Efflux ratio for N#Cc1ccc(-c2ccc(S(=O)(=O)CCN)c(S(N)(=O)=O)c2-c2nnn[nH]2)cn1.O=C(O)C(F)(F)F
(A) 31.99

(Q) Read off the recorded Efflux ratio for Cc1ccc(-c2ccc(S(=O)(=O)C3CNC3)c(S(N)(=O)=O)c2-c2nn[nH]n2)c2sc(N)nc12
(A) 2.00

(Q) Read off the recorded Efflux ratio for Nc1n[nH]c2ccc(-c3ccc(S(=O)(=O)C4CNC4)c(S(N)(=O)=O)c3-c3nnn[nH]3)cc12
(A) 8.00

###

- system: VIM-1 (Pseudomonas aeruginosa (strain ATCC 15692 / DSM 22644 / CIP 104116 / JCM 14847 / LMG 12228 / 1C / PRS 101 / PAO1))
- assay_notes: biochemical
- assay_setup: CCF2-FA substrate, 2 hours at 25° C
Label y when IC50 is strictly below 0.5 nM; otherwise label n.

molecule: Nc1nc2c(-c3ccc(S(=O)(=O)C4CNC4)c(S(N)(=O)=O)c3-c3nn[nH]n3)cccn2n1
assigned_class: y

molecule: N#Cc1cccc(-c2ccc(S(=O)(=O)C3CNC3)c(S(N)(=O)=O)c2-c2nn[nH]n2)c1N
assigned_class: y

molecule: NCCS(=O)(=O)c1ccc(-c2cnc3cccnc3c2)c(-c2nnn[nH]2)c1S(N)(=O)=O.O=C(O)C(F)(F)F [Example 134, 2,2,2-trifluoroacetate]
assigned_class: n

molecule: CNc1nc2c(-c3ccc(S(=O)(=O)CCN)c(S(N)(=O)=O)c3-c3nn[nH]n3)cccc2s1
assigned_class: y

molecule: Nc1nc2c(-c3ccc(S(=O)(=O)C[C@@H](N)CO)c(S(N)(=O)=O)c3-c3nn[nH]n3)cccc2[nH]1
assigned_class: y

Let's switch to this molecule now.
(Q) Confirm or reject: IC50 of Nc1nnc(-c2cccc(-c3ccc(S(=O)(=O)C4CNC4)c(S(N)(=O)=O)c3-c3nnn[nH]3)c2)o1 lies strictly below 0.5 nM
(A) y

###

- system: IMP-1 (Serratia marcescens)
- Sequence (P52699 whole entry, looked up, species assumed): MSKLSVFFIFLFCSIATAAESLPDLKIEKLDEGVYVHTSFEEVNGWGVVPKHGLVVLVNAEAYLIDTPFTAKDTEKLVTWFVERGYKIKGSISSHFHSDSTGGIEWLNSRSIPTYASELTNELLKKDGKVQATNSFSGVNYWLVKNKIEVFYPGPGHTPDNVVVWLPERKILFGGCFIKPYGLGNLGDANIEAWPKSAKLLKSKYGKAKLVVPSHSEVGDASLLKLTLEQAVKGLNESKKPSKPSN
- assay_notes: biochemical
- Assay type: biochemical
- assay_setup: CCF2-FA substrate, 2 hours at 25° C; read-out: IMP-1 IC50
compounds and their reported IC50

compound: C[C@@H](CN)S(=O)(=O)c1ccc(-c2cccc3c2nc(N)n3C)c(-c2nn[nH]n2)c1S(N)(=O)=O
system: IMP-1 (Serratia marcescens)
IC50: 0.954 nM

compound: CNC(=O)c1ccc(-c2ccc(S(=O)(=O)CCN)c(S(N)(=O)=O)c2-c2nnn[nH]2)cn1.O=C(O)C(F)(F)F [Example 139, 2,2,2-trifluoroacetate]
system: IMP-1 (Serratia marcescens)
IC50: 3.32 nM

compound: NS(=O)(=O)c1c(S(=O)(=O)C2CNC2)ccc(-c2cnc3ccccn23)c1-c1nn[nH]n1
system: IMP-1 (Serratia marcescens)
IC50: 0.913 nM

(Q) Read off the recorded IC50 for Nc1cccc(-c2ccc(S(=O)(=O)C3CNC3)c(S(N)(=O)=O)c2-c2nn[nH]n2)n1
(A) 10.2 nM

(Q) Read off the recorded IC50 for NS(=O)(=O)c1c(S(=O)(=O)C2CNC2)ccc(-c2csc(N3CCOCC3)n2)c1-c1nnn[nH]1.O=C(O)C(F)(F)F [Example 124, 2,2,2-trifluoroacetate]
(A) 6.1 nM

(Q) Read off the recorded IC50 for Nc1nc2cccc(-c3ccc(S(=O)(=O)[C@H]4CCNC4)c(S(N)(=O)=O)c3-c3nn[nH]n3)c2[nH]1
(A) 0.979 nM

(Q) Read off the recorded IC50 for NS(=O)(=O)c1c(S(=O)(=O)C2CCNCC2)ccc(-c2cccc3c2CNC3=O)c1-c1nn[nH]n1
(A) 27.1 nM

(Q) Read off the recorded IC50 for NCCS(=O)(=O)c1ccc(-c2ccc(C(F)(F)F)c3sc(N)nc23)c(-c2nn[nH]n2)c1S(N)(=O)=O
(A) 0.322 nM

(Q) Read off the recorded IC50 for NCCS(=O)(=O)c1ccc(-c2cnc(N)c(C(=O)N[C@H]3CCNC3)c2)c(-c2nn[nH]n2)c1S(N)(=O)=O
(A) 9.51 nM

(Q) Read off the recorded IC50 for Nc1nc2c(-c3ccc(S(=O)(=O)C[C@H](N)CO)c(S(N)(=O)=O)c3-c3nn[nH]n3)cccc2[nH]1
(A) 0.709 nM

(Q) Read off the recorded IC50 for C[C@H](N)CS(=O)(=O)c1ccc(-c2cccc3[nH]c(C(=O)O)nc23)c(-c2nn[nH]n2)c1S(N)(=O)=O
(A) 0.35 nM

(Q) Read off the recorded IC50 for NS(=O)(=O)c1c(SC2CNC2)ccc(-c2ccc(C3CCNCC3)cc2)c1-c1nn[nH]n1
(A) 15.1 nM

(Q) Read off the recorded IC50 for CN1CC(S(=O)(=O)c2ccc(-c3cccc4[nH]c(N)nc34)c(-c3nn[nH]n3)c2S(N)(=O)=O)C1
(A) 1.33 nM

(Q) Read off the recorded IC50 for Nc1ccc2cccc(-c3ccc(S(=O)(=O)C4CNC4)c(S(N)(=O)=O)c3-c3nn[nH]n3)c2n1
(A) 0.357 nM

###

compounds and their reported pIC50
- system: NDM-1 (Klebsiella pneumoniae, UniProt C7C422)
- Sequence (C7C422 whole entry, looked up, species assumed): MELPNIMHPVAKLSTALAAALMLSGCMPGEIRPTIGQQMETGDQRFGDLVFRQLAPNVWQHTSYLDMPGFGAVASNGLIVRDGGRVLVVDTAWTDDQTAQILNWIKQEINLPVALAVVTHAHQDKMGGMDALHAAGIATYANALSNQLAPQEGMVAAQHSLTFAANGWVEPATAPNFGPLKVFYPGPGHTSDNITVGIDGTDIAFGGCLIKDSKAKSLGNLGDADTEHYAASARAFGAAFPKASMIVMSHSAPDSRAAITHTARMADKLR
- assay_notes: biochemical
- Format: biochemical
- assay_setup: CCF2-FA substrate, 2 hours at 25° C; read-out: NDM-1 IC50
FYI, pIC50 means -log10 of a concentration in mol per litre.

compound: Nc1nc2c(-c3ccc(S(=O)(=O)CC(N)CO)c(S(N)(=O)=O)c3-c3nn[nH]n3)cccc2s1 (stereo not shown)
pIC50: 9.91
//
compound: NS(=O)(=O)c1c(S(=O)(=O)C2CNC2)ccc(-c2cccc3cn[nH]c23)c1-c1nnn[nH]1
pIC50: 9.66
//
compound: NCCS(=O)(=O)c1ccc(-c2cccc3sc(NC(N)=O)nc23)c(-c2nn[nH]n2)c1S(N)(=O)=O
pIC50: 10.29

Next compound, please.
(Q) Read off the recorded pIC50 for NCCS(=O)(=O)c1ccc(-c2ccc(C(F)(F)F)c3sc(N)nc23)c(-c2nn[nH]n2)c1S(N)(=O)=O
(A) 9.81
